The origin of these recorded values is patent US20100056623A1.

- methodDescription: Solubility test
- Format: physicochemical
- experimentalParameters: demineralized water, ordinary temperature
Each entry below carries its recorded The amount of solvent to dissolve 1 g of the compounds (ml), demineralized water.
Just the number in mL, nothing appended.

{"molecule": "COc1cc(C=CC(=O)OC2CCC3(CO3)C(C3(C)OC3CC=C(C)C)C2OC)cc(OC)c1OC (stereo not shown) [CKD-731, O-(3,4,5-trimethoxycinnamoyl)fumagillol, reference compound]", "numericValue": 1567}
{"molecule": "COc1cc(/C=C/C(=O)O[C@@H]2CC[C@]3(CO3)[C@@H]([C@@]3(C)O[C@@H]3CC=C(C)C)[C@@H]2OC)cc(OC)c1OCCO", "numericValue": 146}

Now for the molecule whose The amount of solvent to dissolve 1 g of the compounds (ml), demineralized water we want.
Input line: Complete the entry with The amount of solvent to dissolve 1 g of the compounds (ml), demineralized water for COc1ccc(/C=C/C(=O)O[C@@H]2CC[C@]3(CO3)[C@@H]([C@@]3(C)O[C@@H]3CC=C(C)C)[C@@H]2OC)cc1OCCO
Output line: 145
